test: Pharmacokinetic test in mice (IV and PO); format: in vivo; details: mouse, plasma; BALB/c mice, IV 2 mg/kg; read-out: T½ (converted)
Listed here: items and their measured half-life.
measuredEndpoint: half-life (h)

Cn1cc2c(n1)c(=O)n(-c1cccc3[nH]ncc13)c1cc(Cl)ccc21 [Compound B60] | 10
O=c1c2nn(C(F)F)cc2c2ccc(C(F)(F)F)nc2n1-c1cccc2[nH]ncc12 [Compound B245] | 10.8
CCn1cc2c(n1)c(=O)n(-c1cccnc1)c1nc(C(F)(F)F)ccc21 [Compound B29] | 0.3
O=c1c2nn(C(F)F)cc2c2cc(F)c(C3CC3)nc2n1-c1cccnc1C1CC1 [Compound B361] | 6.4
Cn1cc2c(n1)c(=O)n(-c1cccnc1)c1cc(Cl)ccc21 [Compound B12] | 0.98
CCn1nc2c(=O)n(-c3cccnc3)c3cc(Cl)ccc3c2c1C [Compound B17] | 0.24
Cc1c2c(nn1C(F)F)c(=O)n(-c1cccc3[nH]ncc13)c1nc(C(F)(F)F)ccc21 [Compound B254] | 5.73
Cn1cc2c(n1)c(=O)n(-c1cccnc1C1CC1)c1cc(Cl)c(F)cc21 [Compound B340] | 9.3
[2H]C([2H])([2H])n1cc2c(n1)c(=O)n(-c1cccc3[nH]ncc13)c1nc(C(F)(F)F)ccc21 [Compound B256] | 5.28
Cc1ncccc1-n1c(=O)c2nn(C)cc2c2ccc(C(F)(F)F)nc21 (single isomer, unassigned) [Compound B180] | 0.16
Cc1c2c(nn1C)c(=O)n(-c1cccnc1)c1nc(C(F)(F)F)ccc21 [Compound B198] | 0.681
Cn1cc2c(n1)c(=O)n(-c1cccc3[nH]ncc13)c1cc(Cl)c(C#N)cc21 [Compound B258] | 14.2
Cn1cc2c(n1)c(=O)n(-c1cccnc1)c1nc(C(F)(F)F)ccc21 [Compound B72] | 0.78
Cn1cc2c(n1)c(=O)n(-c1cccc3[nH]ncc13)c1nc(C(F)(F)F)ccc21 [Compound B181] | 7.3
Cn1cc2c(n1)c(=O)n(-c1cccc3[nH]ncc13)c1cc(Cl)c(F)cc21 [Compound B257] | 9.8

###

system: HCT116-MTAP wild-type (+/+)-cell strain; test: Tumor cell proliferation inhibition assay (CellTiter-Glo), HCT116-MTAP wild-type (+/+); format: cell-based; conditions: Homo sapiens, 120 h, HCT116-MTAP wild-type (+/+) cells, 5-day treatment, IC50 score, read-out: Tumor cell 5-day relative growth inhibition (HCT116-MTAP+/+) (nM), score
measuredEndpoint: IC50

O=c1c2nn(CC3CC3)cc2c2ccc(C(F)(F)F)nc2n1-c1cccnc1 [Compound B199] | ≥ 2000 nM
Cc1ccc(-n2c(=O)c3nn(C)cc3c3ccc(C(F)(F)F)nc32)cn1 [Compound B223] | ≥ 2000 nM
O=c1c2nn(C(F)F)cc2c2ccc(C(F)(F)F)nc2n1-c1cccc2[nH]ncc12 [Compound B245] | 500 to 2000 nM
Cn1cc2c(n1)c(=O)n(-c1cnccn1)c1nc(C(F)(F)F)ccc21 [Compound B227] | ≥ 2000 nM
Cn1cnc2c(=O)n(-c3cccnc3C(F)(F)F)c3cc(Cl)c(F)cc3c21 [Compound B351] | ≥ 2000 nM
O=c1c2[nH]ncc2c2ccc(Cl)cc2n1-c1cccnc1 [Compound B13] | 500 to 2000 nM
CN1CCN(c2nccc(Cn3cc4c(n3)c(=O)n(-c3cccc5[nH]ncc35)c3cc(Cl)c(F)cc43)n2)CC1 [Compound B333] | 500 to 2000 nM
Cc1ncccc1-n1c(=O)c2nn(C)cc2c2ccc(C(F)(F)F)nc21 (single isomer, unassigned) [Compound B180] | < 500 nM

Reference for the values: patent US20240391923A1
